Tested on: green foxtail (Setaria viridis)
assay comment: Test B pre-/postemergence plant response
Type: in vivo
condition label: Preemergence, 31 g ai/ha; scale 0 to 100 (0 no effect, 100 complete control)
attribute measured: Plant response rating, Foxtail, Green

Solved cases (5 shown):
>  <compound>
O=C1CCCC(O)=C1C(=O)c1cnc(-c2ccccc2)n(-c2ccccc2F)c1=O

>  <tested on>
green foxtail (Setaria viridis)

>  <Plant response rating, Foxtail, Green>
0

$$$$
>  <compound>
Cc1ccc(F)cc1-n1c(-c2ccccc2)ncc(C(=O)C2=C(O)CCCC2=O)c1=O

>  <tested on>
green foxtail (Setaria viridis)

>  <Plant response rating, Foxtail, Green>
0

$$$$
>  <compound>
CCCc1ncc(C(=O)C2=C(O)CCCC2=O)c(=O)n1CC1CCCO1 (stereo not drawn)

>  <tested on>
green foxtail (Setaria viridis)

>  <Plant response rating, Foxtail, Green>
0

$$$$
>  <compound>
COCCCn1c(-c2cc(F)cc(F)c2)ncc(C(=O)C2=C(O)CCCC2=O)c1=O

>  <tested on>
green foxtail (Setaria viridis)

>  <Plant response rating, Foxtail, Green>
95

$$$$
>  <compound>
COCCn1c(-c2cc(F)cc(F)c2)ncc(C(=O)C2=C(O)CCCC2=O)c1=O

>  <tested on>
green foxtail (Setaria viridis)

>  <Plant response rating, Foxtail, Green>
95

$$$$

Consider now this further compound.
# input Name the recorded Plant response rating, Foxtail, Green for CCc1ccc(-n2c(-c3ccccc3)ncc(C(=O)C3=C(O)CCCC3=O)c2=O)cc1 .
# output 20

* * *

Plant response rating, Surinam Grass values by entry
Test system: Surinam grass (Brachiaria decumbens)
assay comment: Test B pre-/postemergence plant response
Format: in vivo
condition label: Preemergence, 31 g ai/ha; scale 0 to 100 (0 no effect, 100 complete control)
Description: […] Treated plants and controls were maintained in a greenhouse for 13 to 15 days, after which time all treated plants were visually evaluated and compared to controls. […]
Lab note: write the figure by itself, no unit.

>  <structure as smiles>
Cc1cc(C)cc(-n2c(-c3ccccc3)ncc(C(=O)C3=C(O)CCCC3=O)c2=O)c1

>  <data value>
0

$$$$
>  <structure as smiles>
Cn1c(-c2ccccc2)ncc(C(=O)C2=C(O)CCCC2=O)c1=O

>  <data value>
0

$$$$
>  <structure as smiles>
COCCCn1c(-c2cc(F)cc(F)c2)ncc(C(=O)C2=C(O)CCCC2=O)c1=O

>  <data value>
100

$$$$
>  <structure as smiles>
CCc1ccccc1-n1c(-c2ccccc2)ncc(C(=O)C2=C(O)CCCC2=O)c1=O

>  <data value>
65

$$$$
>  <structure as smiles>
O=C1CCCC(O)=C1C(=O)c1cnc(-c2cccc(Cl)c2)n(-c2ccc(Cl)cc2)c1=O

>  <data value>
0

$$$$

Now look at this one.
# input GET /values?readout=Plant response rating, Surinam Grass&system=Surinam grass (Brachiaria decumbens)&item= CCCCc1ncc(C(=O)C2=C(O)CCCC2=O)c(=O)n1-c1ccc(C)cc1
# output 0

* * *

System: velvetleaf (Abutilon theophrasti)
assay comment: Test B pre-/postemergence plant response
Assay type: in vivo
condition label: Preemergence, 125 g ai/ha; scale 0 to 100, 0 no effect, 100 complete control
Plant response rating, Velvetleaf: recorded values
Reply with the value as a number alone.

These recorded examples may help you get a feel for the data.
>  <molecule>
CCCCc1ncc(C(=O)C2=C(O)CCCC2=O)c(=O)n1-c1ccc(C)cc1 [Compound 67]

>  <tested on>
velvetleaf (Abutilon theophrasti)

>  <Plant response rating, Velvetleaf>
90

$$$$
>  <molecule>
O=C1CCCC(O)=C1C(=O)c1cnc(-c2cccc(Cl)c2)n(-c2ccc(Cl)cc2)c1=O [Compound 64]

>  <tested on>
velvetleaf (Abutilon theophrasti)

>  <Plant response rating, Velvetleaf>
95

$$$$
>  <molecule>
O=C1CCCC(O)=C1C(=O)c1cnc(-c2ccsc2)n(-c2ccccc2)c1=O [Compound 56]

>  <tested on>
velvetleaf (Abutilon theophrasti)

>  <Plant response rating, Velvetleaf>
98

$$$$
>  <molecule>
Cc1cc(-n2c(-c3ccccc3)ncc(C(=O)C3=C(O)CCCC3=O)c2=O)ccc1F [Compound 53]

>  <tested on>
velvetleaf (Abutilon theophrasti)

>  <Plant response rating, Velvetleaf>
98

$$$$
>  <molecule>
CCCc1ncc(C(=O)C2=C(O)CCCC2=O)c(=O)n1CC1CCCO1 (stereo not shown) [Compound 74]

>  <tested on>
velvetleaf (Abutilon theophrasti)

>  <Plant response rating, Velvetleaf>
100

$$$$

# input Using the record for COCCn1c(-c2cc(F)cc(F)c2)ncc(C(=O)C2=C(O)CCCC2=O)c1=O [Compound 119] , report its Plant response rating, Velvetleaf.
# output 100

# input For the molecule CCc1ccccc1-n1c(-c2ccccc2)ncc(C(=O)C2=C(O)CCCC2=O)c1=O [Compound 255] , what Plant response rating, Velvetleaf is on record?
# output 98

* * *

Tested on: ducksalad (Heteranthera limosa)
assay comment: Test B flooded paddy test
Format: in vivo
condition label: Flood, 31 g ai/ha; scale 0 to 100 (0 no effect, 100 complete control)
Output 1 (yes) for records whose Ducksalad plant response rating is lower than 40, 0 (no) for records at or above 40.

Reference set (3 entries):
>  <molecule>
Cc1cc(F)ccc1-n1c(-c2cccc(Br)c2)ncc(C(=O)C2=C(O)CCCC2=O)c1=O [Compound 166]

>  <tested on>
ducksalad (Heteranthera limosa)

>  <qualitative label>
1 (yes)

$$$$
>  <molecule>
O=C(C1=C(O)C2CCC(C2)C1=O)c1cnc(-c2ccccc2)n(C2CCCCC2)c1=O (centres unmarked) [Compound 248]

>  <tested on>
ducksalad (Heteranthera limosa)

>  <qualitative label>
0 (no)

$$$$
>  <molecule>
COc1ccc(-n2c(-c3ccccc3)ncc(C(=O)C3=C(O)CCCC3=O)c2=O)cc1OC [Compound 218]

>  <tested on>
ducksalad (Heteranthera limosa)

>  <qualitative label>
0 (no)

$$$$

# input Quick check: does CCCn1c(-c2cc(F)cc(F)c2)ncc(C(=O)C2=C(O)CCCC2=O)c1=O [Compound 152] have Ducksalad plant response rating under 40?
# output 1 (yes)

# input # check: Ducksalad plant response rating < 40 for CCCCn1c(-c2cc(F)cc(F)c2)ncc(C(=O)C2=C(O)C3CCC(C3)C2=O)c1=O (centres unmarked) [Compound 245]
# output 0 (no)

# input Does the reported Ducksalad plant response rating of Cc1cc(-n2c(-c3cccc(Cl)c3)ncc(C(=O)C3=C(O)CCCC3=O)c2=O)ccc1F [Compound 133] stay below 40?
# output 0 (no)

* * *

Test system: goosegrass (Eleusine indica)
assay comment: Test B pre-/postemergence plant response
Assay type: in vivo
condition label: Preemergence, 62 g ai/ha; scale 0 to 100 (0 no effect, 100 complete control)
From the text: […] Treated plants and controls were maintained in a greenhouse for 13 to 15 days, after which time all treated plants were visually evaluated and compared to controls. […]
attribute measured: Plant response rating, Goosegrass
Respond using a number only.

>  <molecule>
O=C1CCCC(O)=C1C(=O)c1cnc(-c2ccccc2)n(CC2CCCO2)c1=O (centres unmarked)

>  <Plant response rating, Goosegrass>
98

$$$$
>  <molecule>
CCCc1ncc(C(=O)C2=C(O)CCCC2=O)c(=O)n1-c1ccccc1C

>  <Plant response rating, Goosegrass>
98

$$$$
>  <molecule>
COCCn1c(-c2cc(F)cc(F)c2)ncc(C(=O)C2=C(O)CCCC2=O)c1=O

>  <Plant response rating, Goosegrass>
100

$$$$

# input Form field: reported Plant response rating, Goosegrass of CCCn1c(-c2cccs2)ncc(C(=O)C2=C(O)CCCC2=O)c1=O
# output 95

# input Which Plant response rating, Goosegrass value is on record for CCCCn1c(-c2cc(F)cc(F)c2)ncc(C(=O)C2=C(O)C3CCC(C3)C2=O)c1=O (centres unmarked) ?
# output 100

* * *

Test system: yellow nutsedge (Cyperus esculentus)
assay comment: Test B pre-/postemergence plant response
Type: in vivo
condition label: Postemergence, 250 g ai/ha; scale 0 to 100 (0 no effect, 100 complete control)
Overview of reported Plant response rating, Nutsedge, Yellow across a group of compounds:
Just the number, please, no unit attached.

Guide cases for Plant response rating, Nutsedge, Yellow, answers given:
>  <compound>
O=C1CCCC(OC(=O)C2CC2)=C1C(=O)c1cnc(-c2ccccc2)n(-c2ccccc2)c1=O [Compound 88]

>  <data value>
75

$$$$
>  <compound>
CCCCc1ncc(C(=O)C2=C(O)CCCC2=O)c(=O)n1-c1ccc(C)cc1 [Compound 67]

>  <data value>
70

$$$$
>  <compound>
CCCc1ncc(C(=O)C2=C(O)CCCC2=O)c(=O)n1CC1CCCO1 (stereo not drawn) [Compound 74]

>  <data value>
70

$$$$

# input May I ask what Plant response rating, Nutsedge, Yellow has been recorded for Cc1ccccc1-c1ncc(C(=O)C2=C(O)CCCC2=O)c(=O)n1-c1ccccc1 [Compound 82] ?
# output 55

# input Value lookup for Plant response rating, Nutsedge, Yellow; key = CCCCCn1c(-c2ccccc2)ncc(C(=O)C2=C(O)CCCC2=O)c1=O [Compound 89]
# output 75

# input Give its Plant response rating, Nutsedge, Yellow value. Item: Cc1cc(-n2c(-c3ccccc3)ncc(C(=O)C3=C(O)CCCC3=O)c2=O)ccc1F [Compound 53]
# output 75
